Values from patent US7910741B2

Target: human CCR5 (Homo sapiens, UniProt P51681)
Sequence (P51681 whole entry): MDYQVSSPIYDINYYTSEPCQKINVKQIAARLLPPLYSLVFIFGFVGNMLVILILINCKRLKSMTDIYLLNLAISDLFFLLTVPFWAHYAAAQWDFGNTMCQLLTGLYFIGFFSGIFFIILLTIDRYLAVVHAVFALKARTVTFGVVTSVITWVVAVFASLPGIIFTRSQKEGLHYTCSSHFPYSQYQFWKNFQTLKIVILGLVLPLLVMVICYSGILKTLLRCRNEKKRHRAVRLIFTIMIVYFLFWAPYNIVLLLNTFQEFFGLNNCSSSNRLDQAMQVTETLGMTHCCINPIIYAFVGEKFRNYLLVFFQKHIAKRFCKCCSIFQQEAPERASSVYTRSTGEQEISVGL
Test: Inhibition test on the binding of RANTES to CCR5 (RANTES-induced transient increase of Ca ion in CCR5/CHO cells)
Settings: inhibition of RANTES (10 nM)-induced Ca2+ transient increase; CCR5/CHO cell
Where a name gives a salt, the structure may show the parent alone.
readout: IC50 (nM)
// units = nM; emit number, no label

Task: Value lookup for IC50; key = CCCCN(C(=O)C1CCCCC1)C1CCN(Cc2ccc(Oc3ccc(NS(C)(=O)=O)cc3)cc2)CC1 [Example 5(2), hydrochloride]
Output: 77
